Measured target: NDM-1 (Klebsiella pneumoniae, UniProt C7C422)
Sequence (C7C422 whole entry, looked up, species assumed): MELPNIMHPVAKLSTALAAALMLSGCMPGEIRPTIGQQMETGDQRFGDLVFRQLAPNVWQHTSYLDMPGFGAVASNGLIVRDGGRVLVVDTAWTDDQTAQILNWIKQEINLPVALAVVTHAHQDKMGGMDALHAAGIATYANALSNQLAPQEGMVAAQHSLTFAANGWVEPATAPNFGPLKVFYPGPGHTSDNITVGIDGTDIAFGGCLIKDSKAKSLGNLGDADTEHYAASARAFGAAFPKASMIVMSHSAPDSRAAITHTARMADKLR
Experimental protocol: biochemical
Assay type: biochemical
Condition description: fluorescence assay, CCF2-FA substrate, 1 pM enzyme, 2 hours at 25° C.; read-out: NDM-1 IC50
Readout name: IC50 (nM)
// note: answer is a bare numeric in nM

Record NCCCNS(=O)(=O)c1ccc(-c2cccc3[nH]c(N)nc23)c(-c2nn[nH]n2)c1S(N)(=O)=O [Example 182] . Reported IC50: 0.0393

Noted for CN1CCOC(CNS(=O)(=O)c2ccc(-c3cccc4sc(N)nc34)c(-c3nnn[nH]3)c2S(N)(=O)=O)C1 (centres unmarked) [Example 17] : its IC50 reads 0.0889

The compound identified as NCC(=O)NC1CCC[C@@H](c2ccc(S(=O)(=O)N[C@@H]3CCNC3)c(S(N)(=O)=O)c2-c2nn[nH]n2)C1 (some centres unmarked) [Example 270] registered its IC50 at 0.244

// IC50 value for Nc1nc2c(-c3ccc(S(=O)(=O)N[C@@H]4CN[C@@H](CO)C4)c(S(N)(=O)=O)c3-c3nnn[nH]3)cccc2s1 [Example 79] : 0.0427

Query Nc1nc2c(-c3ccc(S(N)(=O)=O)c(S(N)(=O)=O)c3-c3nn[nH]n3)cccc2s1 [Example 143] yields IC50 of 0.0849

Notebook: NC[C@H]1CCN(S(=O)(=O)c2ccc(-c3cccc4[nH]c(N)nc34)c(-c3nn[nH]n3)c2S(N)(=O)=O)C1 [Example 253] , IC50 read as 0.884

The recorded IC50 for Nc1nc2c(-c3ccc(S(=O)(=O)N4CC[C@@H](F)[C@H](N)C4)c(S(N)(=O)=O)c3-c3nn[nH]n3)cccc2[nH]1 [Example 205] is 1.2

IC50 recorded for this compound, NC[C@H](N)CNS(=O)(=O)c1ccc(-c2cccc3[nH]c(N)nc23)c(-c2nn[nH]n2)c1S(N)(=O)=O [Example 370] , is 0.0459

// IC50 lookup, compound = NCCNS(=O)(=O)c1ccc(-c2cccc3[nH]c(N)nc23)c(-c2nn[nH]n2)c1S(N)(=O)=O [Example 12] , result: 0.0429

Per the records, this compound ( C[C@H](CN)NS(=O)(=O)c1ccc(-c2cccnc2NCCN)c(-c2nn[nH]n2)c1S(N)(=O)=O [Example 460] ) has IC50 equal to 0.603

Recorded result, C[C@@H](CCN)NS(=O)(=O)c1ccc(-c2cccc3[nH]c(N)nc23)c(-c2nn[nH]n2)c1S(N)(=O)=O [Example 267] , IC50: 0.179

Consider Nc1nc2c(-c3ccc(S(=O)(=O)NC[C@@]4(N)CCNC4)c(S(N)(=O)=O)c3-c3nn[nH]n3)cccc2[nH]1 [Example 251] . Its measured IC50 is 0.0567

Entry NS(=O)(=O)c1c(S(=O)(=O)N[C@@H]2CCNC2)ccc(-c2cccc3ncccc23)c1-c1nn[nH]n1 [Example 287] — recorded IC50 = 0.0422

What the record says about NCCNS(=O)(=O)c1ccc(-c2cccc3nonc23)c(-c2nn[nH]n2)c1S(N)(=O)=O [Example 239] : IC50 is 0.439

* * *

Measured target: UniProt C7C422
Experimental protocol: biochemical
Assay type: biochemical
Condition description: fluorescence assay, CCF2-FA substrate, 1 pM enzyme, 2 hours at 25° C.; read-out: NDM-1 IC50
Readout name: log10(IC50) (log10 of the value in nM)
Values are log10 of IC50 in nM.

log10(IC50) reported for this compound Nc1nc2c(-c3ccc(S(=O)(=O)N[C@@H]4CCNC4)c(S(N)(=O)=O)c3-c3nnn[nH]3)cc(F)cc2[nH]1 : -1.43

Lookup result for NC(=O)c1nc2c(-c3ccc(S(=O)(=O)N[C@@H]4CCNC4)c(S(N)(=O)=O)c3-c3nn[nH]n3)cccc2[nH]1 ; measured log10(IC50): -1.71

Lab book: log10(IC50) of Nc1nc2c(-c3ccc(S(=O)(=O)N[C@@H]4C[C@H]4N)c(S(N)(=O)=O)c3-c3nnn[nH]3)cccc2[nH]1 noted as -0.82

So for NS(=O)(=O)c1c(S(=O)(=O)N[C@@H]2CCNC2)ccc(-c2cccc3[nH]cnc23)c1-c1nn[nH]n1 , the logged log10(IC50) turned out to be -1.41

The recorded log10(IC50) for CN(C1CCCNC1)S(=O)(=O)c1ccc(-c2cccc3sc(N)nc23)c(-c2nnn[nH]2)c1S(N)(=O)=O (stereo not shown) is 0.17

For reference, reported log10(IC50) for Nc1nc2c(-c3ccc(S(=O)(=O)NC[C@@H](N)C(=O)O)c(S(N)(=O)=O)c3-c3nn[nH]n3)cccc2s1 stands at -1.17

The reported value for NC[C@H](N)CNS(=O)(=O)c1ccc(-c2cccc3ccc(N)nc23)c(-c2nn[nH]n2)c1S(N)(=O)=O in terms of log10(IC50) is -1.09

Memo: NCc1ncc(-c2cccc(-c3ccc(S(=O)(=O)N[C@@H]4CCNC4)c(S(N)(=O)=O)c3-c3nn[nH]n3)c2)[nH]1 , reported log10(IC50): -1.25

Lab note: measured log10(IC50) of NCCNS(=O)(=O)c1ccc(-c2cccc3[nH]c([C@@H](N)CO)nc23)c(-c2nn[nH]n2)c1S(N)(=O)=O was -0.64

# log10(IC50) (compound: Nc1nc2c(-c3ccc(S(=O)(=O)N[C@H]4CO[C@H]5[C@H]4OC[C@H]5O)c(S(N)(=O)=O)c3-c3nnn[nH]3)cccc2s1 ) is -1.39

Value of measured log10(IC50) for the entry NCC1CCCCN1S(=O)(=O)c1ccc(-c2cccc3sc(N)nc23)c(-c2nnn[nH]2)c1S(N)(=O)=O.O=C(O)C(F)(F)F (stereo not shown) [Example 110, 2,2,2-trifluoroacetate] : -1.09

Documented log10(IC50) of NCCNCc1sc(N)nc1-c1cccc(-c2ccc(S(=O)(=O)N[C@@H]3CCNC3)c(S(N)(=O)=O)c2-c2nnn[nH]2)c1 : -0.29

Value of measured log10(IC50) for the entry Nc1nc2c(-c3ccc(S(=O)(=O)NC4CCS(=O)(=O)CC4)c(S(N)(=O)=O)c3-c3nnn[nH]3)cccc2s1 : -1.59

* * *

Tested on: Pseudomonas aeruginosa MB9798 vs MB9799
Condition description: ratio MITC95 PA_9798/MITC95 PA_9799
We label by threshold. Values of Efflux ratio strictly beneath 1 are TRUE. Values of 1 and up are FALSE.

stdin: Lab log: compare recorded Efflux ratio with 1; is it strictly lower for NCCNS(=O)(=O)c1ccc(-c2cccc(SCC(N)CO)c2)c(-c2nn[nH]n2)c1S(N)(=O)=O (stereo not drawn) ?
stdout: FALSE

stdin: A record lists CN1CC[C@@H](CNS(=O)(=O)c2ccc(-c3cccc4sc(N)nc34)c(-c3nnn[nH]3)c2S(N)(=O)=O)C1 . Is its Efflux ratio below 1?
stdout: TRUE

stdin: Does Nc1nc2c(-c3ccc(S(=O)(=O)N4CC(F)(F)C4)c(S(N)(=O)=O)c3-c3nnn[nH]3)cccc2s1 have Efflux ratio strictly under 1?
stdout: FALSE

stdin: Consider the compound CN1CCOC(CNS(=O)(=O)c2ccc(-c3cccc4sc(N)nc34)c(-c3nnn[nH]3)c2S(N)(=O)=O)C1 (stereo not drawn) . Is its Efflux ratio strictly less than 1?
stdout: FALSE

stdin: Identify whether the compound NS(=O)(=O)c1c(S(=O)(=O)N[C@@H]2CCNC2)ccc(-c2cnc3ccccn23)c1-c1nnn[nH]1 records Efflux ratio below 1.
stdout: FALSE

stdin: Is 1 strictly greater than the compound's reported Efflux ratio? compound: Nc1nc2c(-c3ccc(S(=O)(=O)N4CC[S+]([O-])CC4)c(S(N)(=O)=O)c3-c3nnn[nH]3)cccc2s1
stdout: FALSE

stdin: Is the reported Efflux ratio for Nc1ncc(-c2ccc(S(=O)(=O)N[C@H]3CNC[C@H]3N)c(S(N)(=O)=O)c2-c2nn[nH]n2)s1 strictly below 1?
stdout: FALSE

stdin: Given C[C@H](CN)NS(=O)(=O)c1ccc(-c2cccc3[nH]nnc23)c(-c2nn[nH]n2)c1S(N)(=O)=O , is recorded Efflux ratio strictly lower than 1?
stdout: TRUE

stdin: Efflux ratio strictly < 1 for this compound? COCCNS(=O)(=O)c1ccc(-c2cccc3sc(N)nc23)c(-c2nnn[nH]2)c1S(N)(=O)=O
stdout: FALSE

stdin: Regarding N[C@H]1CNC[C@H]1NS(=O)(=O)c1ccc(-c2cnc3cc[nH]c3c2)c(-c2nn[nH]n2)c1S(N)(=O)=O , kindly confirm whether its Efflux ratio is beneath 1.
stdout: FALSE

stdin: I'd appreciate it if you could check whether Nc1nc2c(-c3ccc(S(=O)(=O)N[C@@H]4CN[C@@H](CO)C4)c(S(N)(=O)=O)c3-c3nnn[nH]3)cccc2s1 has Efflux ratio smaller than 1.
stdout: TRUE

stdin: Consider the compound NCCn1nnc2c(-c3ccc(S(=O)(=O)N[C@@H]4CCNC4)c(S(N)(=O)=O)c3-c3nn[nH]n3)cccc21 . Is its Efflux ratio strictly less than 1?
stdout: FALSE
